# assay info: hydrolysis of esters in phosphate buffer + 10% human serum
# Type: in vitro ADME
# experimental conditions: buffer with 10% serum; pH 7.4, 10% human serum, 10 μg/ml, 30 min, 37°C, corrected for blank; read-out: % hydrolyzed after 30 min at 37°C, phosphate buffer + 10% human serum
# Method: The hydrolysis of the esters of the aminopenicillins prepared according to the invention were determined in buffer solution with and without human serum being present. […] The test solutions were extracted with ethyl acetate to remove unhydrolyzed ester and were analyzed microbiologically for their contents of aminopenicillin. […]
metabolised at 0.5 h for assorted molecules
result type: metabolised at 0.5 h (%)

{"molecule": "CC(=O)OC(C)OC(=O)[C@@H]1N2C(=O)[C@@H](NC(=O)C(N)c3ccc(Cl)cc3)[C@H]2SC1(C)C (stereo partly drawn)", "result type": "metabolised at 0.5 h", "data value": 15.6}
{"molecule": "COC(=O)OCOC(=O)[C@@H]1N2C(=O)[C@@H](NC(=O)[C@H](N)c3ccccc3)[C@H]2SC1(C)C", "result type": "metabolised at 0.5 h", "data value": 77.9}
{"molecule": "CCCCOC(=O)OCOC(=O)[C@@H]1N2C(=O)[C@@H](NC(=O)[C@H](N)c3ccccc3)[C@H]2SC1(C)C", "result type": "metabolised at 0.5 h", "data value": 41.1}
